# credit: the nanobody polyreactivity screen of Harvey et al. (2022)

# method.summary: yeast display, Sf9 membrane polyspecificity reagent, FACS + sequencing; frameworks hold sequencing errors
readout.label: polyreactivity (PSR sort gate)

Solved cases (5 shown):
INSERT INTO results (sequence_string, measurement) VALUES
  ('QVQHVESGGGLVQAGGSLRLSCAASGNIFYTNAMGWYRQATGKERELVAAISGSGGRTYYADSVKGRFTISRDNAKNTVYLQMNSLKPEDTAVYYCNAVRRDYYDRTYGYWGQGTQVTVSS', 'low polyreactivity'),
  ('QVQLVESGGGLVQAGGSLRLSCAASGFTFYLYAMGWYRQAPGKERELVAAISSRGGTTYYADSVKGRFTISRDNAKNTVYLQMNSLKPEDTAVYYCNVARVYHIYDYWGQGTQVTVSS', 'high polyreactivity'),
  ('QVQLVESGGGLVQAGGSLRLSCAASGSTFGWYTMGWYRQSPGKERELVAAITSRGTRTSYADSVKGRFTISRDYAKNTVYLQMNSLKPEDTAVYYCAARVFRGLGEYYWGQGTQVTVSS', 'high polyreactivity'),
  ('QVQLVESGGGLVQAGGSLRLSCAASGRTFFWYAMGWYRQAPGKERELVADISSSGGSTYYADSVKGRFTISRDNAKNTVYLQMNSLKPEDTAVYYCAALSPWWRGGYDYWGQGTQVTVSS', 'high polyreactivity'),
  ('QVQLVESGGGLVQAGGSLRLSCAASGFTFGYYGMGWYRQAPGKVRELVAAINWSGVNTNYADSVKGRFTISRDNAKNTVYLQMNSLKPEDTAVYYCAADAGYDGYGYWGQGTQVTVSS', 'low polyreactivity');

// field: polyreactivity (PSR sort gate); key: QVKLVESGGGLVQAGGSLRLSCAASGITFVLYAMRWYRQAPGKERELVASITWDATDTYYADSVKGRFTISRDNAKNTVYLQMNSLKPEDTAVYYCNAAYFNYWWLEYDYWGQGTQVTVSS ; value = high polyreactivity

// field: polyreactivity (PSR sort gate); key: QVQLVESGGGLVQAGGSLRLSCAASGFTFDVYTMGWYRQAPGKEREFVAAISGSGGSTYYADSVKGRFTISRDNAKNTVYLQMNSLKPEDTAVYYCNAGLSRVSHRHRSHSLQGYDYWGQGTQVTVSS ; value = low polyreactivity

// field: polyreactivity (PSR sort gate); key: QVQLVESGGGLVQAGGSLRLSCAASGIIFDSYTMGWYRQAPGKERELVAGISGSGGSTDYADSVKGRFTISRDNAKNTFYLQMNSLKPEDTAVYYCAARPTPYRDDADEYWGQGTQVTVSS ; value = low polyreactivity

// field: polyreactivity (PSR sort gate); key: QVQLVESGGGLVQAGGSLRLSCSATGLTFRPYAMGWYRQAPGTERELVAGITRGGSTKYADSVKGRFTISRDNAKNTVYLLMISLKPEDTAVYYCAVERGSYSYDRPFYYWGQGTQVTVSS ; value = high polyreactivity

// field: polyreactivity (PSR sort gate); key: QVQLVESGGGLVQAGGSLRLSCAASGRTFSYNTMGWYRQAPGKERELVASISGSGGRTYYADSVKGRFTISRDNAKNTVYLQMNSLKPEDTAVYYCAARRYSRDYDYWGQGTQVTVSS ; value = high polyreactivity

// field: polyreactivity (PSR sort gate); key: QVQLVESGGGLVQAGGSLRLSCAASGRIFDGNAMGWYRQAPGKERELVATITRGGRTNYADSVKGRFTISRDNAKNTVYLQMNTLKPEDTAVYYCATSYPGYAYNQAWYPYGYWGQGTQVTVSS ; value = low polyreactivity
